# measured_target: Receptor Binding Domain (RBD) of the SARS-COV-2 protein S (SARS-CoV-2, UniProt P0DTC2 319-541)
# assay_remarks: ELISA, purified nanobody, RBD coated
pEC50: −log10 of the molar value.

| binder | pEC50 |
| --- | --- |
| NbCoV_29 (VHH) VHH: QVQLQESGGGLVQAGGSLRLSCAASGRTLYAMGWFRQAPGKEREFVAAKSWNGGNTYYADSVKGRFTISKDNAKNTVYLQMNSLKPEDTAVYNCAASSWDSRGSSNYVHYDYWGQGTQVTVSS | 7.25 |
| NbCoV_32 (VHH) VHH: QVQLQESGGGSVQPGGSLRLSCAVSRSRFSLVTMGWYRQAPGKERELVAAIAIGGSTKYADSVKGRFTISRDNAKSTVYLQMNSLQPEDTAVYYCNEARVYDSNWYPRDYWGQGTQVTVSS | 7.08 |
| NbCoV_39 (VHH, also called Nb 39; 39A) VHH: QVQLQESGGGLVQAGGSLRLSCAASGRTFSSTAMAWFRQAPGQEREFVATISWSGDNTKYADSVKGRFTISRDNAKNTVYLQMNSLKPEDTAVYYCAADPGNFGVPIEYFMFDYWGQGTQVTVSS | 9.54 |
| NbCoV_104 (VHH, also called Nb 104) VHH: QVQLQESGGGLVQPGGSLRLSCAASGSIFRVMGWYRQAPGKEHDLVATITRSGDTNYADSVKGRFTISRDNTKNTVYLQMNNLKPEDTDVYYCYARNFVGHNPDVWGQGTQVTVSS | 8.26 |
| NbCoV_110 (VHH, also called Nb 110) VHH: QVQLQESGGGLVQAGDSLRLSCAASGRTFGSHATAWFRQAPGKEREFVARIFWRGDYTYYADSVKGRFTISRDSAKNTVYLQMNSLKSEDTAVYYCAVARSWSDLDFENGYDYWGQGTQVTVSS | 7.49 |
| NbCoV_31 (VHH) VHH: QVQLQESGGGLVQAGGSLRLSCAASGRTFSRSAVAWFRQAPGKEREFVAGISWSGRNVNYANSVKGRFTISRDSTKNTVYLQMNSLKPEDTAVYYCATSQFGSGTSDSEQYDYWGQGTQVTVSS | 6.86 |
| NbCoV_78 (VHH) VHH: QVQLQESGGGLVQAGGSLRLSCVASGRAFSSSSMGWFRQAPGKEREFVAAIRWSDDNTVYVDSVKGRFAISRDNAKNTVYLQMNSLKPEDTAVYYCAATGLGYRYAVLESRSEYRYWGQGTQVTVSS | 7.78 |
| NbCoV_44 (VHH) VHH: QVQLQESGGGLVQAGGSLRLSCAASGRTVSYRVMGWFRQAPGKEREFVAFVDWSSGTAYYAESVQGRFIMSRDTADNTGFLQMNNLKPEDTAVYYCAADPFFRVIAYSDPKRYSYWGQGTQVTVSS | 7.78 |

Source: patent US20240254202A1
